Source of measurements: patent US9216991B2

Let's look at some molecules and their measured IC50.
- targetEntity: IRAK4 (Homo sapiens, UniProt Q9NWZ3)
- Construct: His (N); TEV cleavage site (N)
- methodNotes: IRAK4 Enzymatic Assay
- details: His-TEV-IRAK4 20 ng/well, ATP 2 μM, STK1-biotin peptide 300 nM, 3 hours at 30° C., FlashPlate radioactivity
Where a name gives a salt, the structure may show the parent alone.

Answered cases to consult:
molecule | IC50
CC(=O)N1CCC(n2cc(-c3cnc(-c4cccc(-c5cnn(C)c5)c4)nc3)cn2)CC1 | < 100 nM
Cn1cc(-c2cccc(-c3ncc(-c4cnn(C5CCS(=O)(=O)C5)c4)cn3)c2)cn1 (stereo not shown) | 100 to 1000 nM
C[C@H]1C[C@@H](n2cc(-c3cnc(-c4cccc(-c5cnn(C)c5)c4)nc3)cn2)CCN1 | < 100 nM
CN(C)C(=O)Cn1cc(-c2cnc(-c3cccc(-c4cnn(C)c4)c3)nc2)cn1 | 100 to 1000 nM
c1cc(-c2ccncc2)cc(-c2ncc(-c3cnn(C4CCNCC4)c3)cn2)c1 [Example 33, hydrochloride] | 100 to 1000 nM

For the molecule shown here, Cn1cc(-c2cccc(-c3ncc(-c4cnn([C@H]5CC[C@H](C(=O)NCC(O)CO)CC5)c4)cn3)c2)cn1 (stereo partly shown) , give the reported IC50.
< 100 nM

For the molecule shown here, Cn1cc(-c2cccc(-c3ncc(-c4cnn([C@H]5CC[C@H](C(=O)N6C[C@H](O)[C@@H](O)C6)CC5)c4)cn3)c2)cn1 , give the reported IC50.
< 100 nM

---

- targetEntity: IRAK4 (Homo sapiens)
- Construct: His (N); TEV cleavage site (N)
- Sequence (Q9NWZ3 1-460): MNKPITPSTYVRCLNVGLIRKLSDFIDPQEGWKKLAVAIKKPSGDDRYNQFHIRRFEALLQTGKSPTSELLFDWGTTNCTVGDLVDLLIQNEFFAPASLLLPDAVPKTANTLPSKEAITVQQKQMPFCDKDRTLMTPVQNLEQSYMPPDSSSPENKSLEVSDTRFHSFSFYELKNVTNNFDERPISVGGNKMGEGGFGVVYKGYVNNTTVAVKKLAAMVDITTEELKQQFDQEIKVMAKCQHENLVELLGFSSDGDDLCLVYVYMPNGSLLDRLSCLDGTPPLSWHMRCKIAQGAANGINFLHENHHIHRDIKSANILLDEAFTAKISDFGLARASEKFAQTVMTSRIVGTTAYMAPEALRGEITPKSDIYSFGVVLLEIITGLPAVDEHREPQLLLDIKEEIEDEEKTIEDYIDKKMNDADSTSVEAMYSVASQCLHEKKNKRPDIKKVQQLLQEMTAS
- methodNotes: IRAK4 Enzymatic Assay
- details: His-TEV-IRAK4 20 ng/well, ATP 2 μM, STK1-biotin peptide 300 nM, 3 hours at 30° C., FlashPlate radioactivity
measuredParameter: IC50

Answered cases to consult:
compound | targetEntity | IC50
Cn1cc(-c2cccc(-c3ncc(-c4cnn([C@H]5CC[C@H](C(=O)NCCO)CC5)c4)cn3)c2)cn1 [Example 184] | IRAK4 (Homo sapiens) | < 100 nM
Cn1cc(-c2cccc(-c3ncc(-c4cn(C)nc4CO)cn3)c2)cn1 [Example 155] | IRAK4 (Homo sapiens) | 1000 to 5000 nM
Cn1cc(-c2cccc(-c3ncc(-c4cnn(CC(=O)N5CCCOCC5)c4)cn3)c2)cn1 [Example 93] | IRAK4 (Homo sapiens) | 100 to 1000 nM

Continue with the compound presented below.
For the compound shown here, Cn1cc(-c2cccc(-c3ncc(-c4cnn([C@H]5CC[C@H](C(=O)NC(C)(C)C)CC5)c4)cn3)c2)cn1 [Example 192] , give the reported IC50.
< 100 nM

---

- targetEntity: IRAK4 (Homo sapiens, UniProt Q9NWZ3)
- Construct: His (N); TEV cleavage site (N)
- Sequence (Q9NWZ3 1-460): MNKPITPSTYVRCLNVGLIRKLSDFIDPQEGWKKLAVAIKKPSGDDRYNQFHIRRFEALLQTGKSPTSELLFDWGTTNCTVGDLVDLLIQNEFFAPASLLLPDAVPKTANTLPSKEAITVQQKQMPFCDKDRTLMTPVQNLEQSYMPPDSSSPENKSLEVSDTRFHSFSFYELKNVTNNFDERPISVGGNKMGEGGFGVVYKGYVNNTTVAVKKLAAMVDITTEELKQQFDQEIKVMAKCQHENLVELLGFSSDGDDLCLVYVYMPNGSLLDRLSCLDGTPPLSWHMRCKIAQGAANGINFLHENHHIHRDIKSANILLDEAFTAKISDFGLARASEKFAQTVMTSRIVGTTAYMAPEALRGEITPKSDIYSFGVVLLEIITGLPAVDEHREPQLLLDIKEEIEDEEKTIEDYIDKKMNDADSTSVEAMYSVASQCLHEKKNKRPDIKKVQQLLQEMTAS
- methodNotes: IRAK4 Enzymatic Assay
- details: His-TEV-IRAK4 20 ng/well, ATP 2 μM, STK1-biotin peptide 300 nM, 3 hours at 30° C., FlashPlate radioactivity
pIC50: −log10 of the molar value. Where a name gives a salt, the structure may show the parent alone.
Let's look at some compounds and their measured pIC50.

Answered cases to consult:
compound | observedValue
Cn1cc(-c2cccc(-c3ncc(-c4cnn([C@H]5CC[C@H](CO)CC5)c4)cn3)c2)cn1 [Example 238] | > 7.00
Cn1cc(-c2cccc(-c3ncc(-c4cnn(CCC(=O)N5CCOCC5)c4)cn3)c2)cn1 [Example 83] | 5.30 to 6.00
Cn1cc(-c2cccc(-c3ncc(-c4cnn([C@H]5CCNC5)c4)cn3)c2)cn1 [Example 125] | 6.00 to 7.00
CO[C@H]1CCN(C(=O)[C@H]2CC[C@H](n3cc(-c4cnc(-c5cccc(-c6cnn(C)c6)c5)nc4)cn3)CC2)C1 [Example 191] | > 7.00
COCCC1CN(C(=O)Cn2cc(-c3cnc(-c4cccc(-c5cnn(C)c5)c4)nc3)cn2)CCO1 (stereo not shown) [Example 87] | 6.00 to 7.00
CC(=O)N1CCC(n2cc(-c3cnc(-c4cccc(-c5cnn(C)c5)c4)nc3)cn2)C(F)C1 (stereo not shown) [Example 263] | > 7.00

For the compound shown here, Cn1cc(-c2cccc(-c3ncc(-c4cnn(C5CCNCC5)c4)cn3)c2)nn1 [Example 72, hydrochloride] , give the reported pIC50.
5.30 to 6.00

---

- targetEntity: IRAK4 (Homo sapiens, UniProt Q9NWZ3)
- Construct: His (N); TEV cleavage site (N)
- methodNotes: IRAK4 Enzymatic Assay
- details: His-TEV-IRAK4 20 ng/well, ATP 2 μM, STK1-biotin peptide 300 nM, 3 hours at 30° C., FlashPlate radioactivity
pIC50: −log10 of the molar value. Where a name gives a salt, the structure may show the parent alone.
Let's look at some molecules and their measured pIC50.

Answered cases to consult:
molecule | pIC50
CC(C)CNC(=O)[C@H]1CC[C@H](n2cc(-c3cnc(-c4cccc(-c5cnn(C)c5)c4)nc3)cn2)CC1 | > 7.00
Cn1cc(-c2cccc(-c3ncc(-c4cnn(CC(=O)NC5CCOCC5)c4)cn3)c2)cn1 | 6.00 to 7.00
c1cc(-c2cnoc2)cc(-c2ncc(-c3cnn(C4CCNCC4)c3)cn2)c1 [Example 13, hydrochloride] | 6.00 to 7.00
C[C@@H]1C[C@H](n2cc(-c3cnc(-c4cccc(-c5cnn(C)c5)c4)nc3)cn2)CCN1 | 6.00 to 7.00
Cn1cc(-c2cccc(-c3ncc(-c4cnn(C5CCCS(=O)(=O)C5)c4)cn3)c2)cn1 (stereo not drawn) | > 7.00
CN(C(=O)Cn1cc(-c2cnc(-c3cccc(-c4cnn(C)c4)c3)nc2)cn1)C1CCOCC1 | 6.00 to 7.00
CN1C[C@H]2CC1CN2C(=O)Cn1cc(-c2cnc(-c3cccc(-c4cnn(C)c4)c3)nc2)cn1 (stereo in doubt) | 5.30 to 6.00
Cn1cc(-c2cccc(-c3ncc(-c4cnn([C@H]5CC[C@H](C(=O)NC(C)(C)CO)CC5)c4)cn3)c2)cn1 | > 7.00

For the molecule shown here, Cn1cc(-c2cccc(-c3ncc(-c4cnn(C5CCS(=O)(=O)CC5)c4)cn3)c2)cn1 , give the reported pIC50.
6.00 to 7.00

For the molecule shown here, Cn1cc(-c2cccc(-c3ncc(-c4cnn(C5CCN(C6CCOCC6F)CC5)c4)cn3)c2)cn1 (stereo not drawn) , give the reported pIC50.
6.00 to 7.00

---

- targetEntity: IRAK4 (Homo sapiens)
- Construct: His (N); TEV cleavage site (N)
- methodNotes: IRAK4 Enzymatic Assay
- Type: biochemical
- details: His-TEV-IRAK4 20 ng/well, ATP 2 μM, STK1-biotin peptide 300 nM, 3 hours at 30° C., FlashPlate radioactivity
Structures can show the parent of a compound that is named as a salt.
Let's look at some compounds and their measured IC50.

For the compound shown here, c1ccc(Cn2cc(-c3cccc(-c4ncc(-c5cnn(C6CCNCC6)c5)cn4)c3)cn2)cc1 [Example 21, hydrochloride] , give the reported IC50.
100 to 1000 nM

For the compound shown here, c1cc(-c2ccoc2)cc(-c2ncc(-c3cnn(C4CCNCC4)c3)cn2)c1 [Example 7, Hydrochloride] , give the reported IC50.
100 to 1000 nM

For the compound shown here, Cn1cc(-c2cccc(-c3ncc(-c4cnn(C5CCC[C@H](S(C)(=O)=O)C5)c4)cn3)c2)cn1 (single isomer, unassigned) , give the reported IC50.
< 100 nM

For the compound shown here, Cn1cc(-c2cccc(-c3ncc(-c4cnn([C@H]5CC[C@H](C(=O)NCCCO)CC5)c4)cn3)c2)cn1 , give the reported IC50.
< 100 nM

For the compound shown here, Cc1cc(-c2cccc(-c3ncc(-c4cnn([C@H]5CC[C@H](C(=O)N(C)C)CC5)c4)cn3)c2)cnn1 , give the reported IC50.
< 100 nM

For the compound shown here, COC1CN(C(=O)Cn2cc(-c3cnc(-c4cccc(-c5cnn(C)c5)c4)nc3)cn2)C1 , give the reported IC50.
100 to 1000 nM

For the compound shown here, O=C(Cn1cc(-c2cccc(-c3ncc(-c4cnn(C5CCNCC5)c4)cn3)c2)cn1)N1CCCC1 [Example 17, hydrochloride] , give the reported IC50.
1000 to 5000 nM
